Assayed Target: PIK3CD (Human) (UniProt O00329)
Sequence (O00329 whole entry, looked up): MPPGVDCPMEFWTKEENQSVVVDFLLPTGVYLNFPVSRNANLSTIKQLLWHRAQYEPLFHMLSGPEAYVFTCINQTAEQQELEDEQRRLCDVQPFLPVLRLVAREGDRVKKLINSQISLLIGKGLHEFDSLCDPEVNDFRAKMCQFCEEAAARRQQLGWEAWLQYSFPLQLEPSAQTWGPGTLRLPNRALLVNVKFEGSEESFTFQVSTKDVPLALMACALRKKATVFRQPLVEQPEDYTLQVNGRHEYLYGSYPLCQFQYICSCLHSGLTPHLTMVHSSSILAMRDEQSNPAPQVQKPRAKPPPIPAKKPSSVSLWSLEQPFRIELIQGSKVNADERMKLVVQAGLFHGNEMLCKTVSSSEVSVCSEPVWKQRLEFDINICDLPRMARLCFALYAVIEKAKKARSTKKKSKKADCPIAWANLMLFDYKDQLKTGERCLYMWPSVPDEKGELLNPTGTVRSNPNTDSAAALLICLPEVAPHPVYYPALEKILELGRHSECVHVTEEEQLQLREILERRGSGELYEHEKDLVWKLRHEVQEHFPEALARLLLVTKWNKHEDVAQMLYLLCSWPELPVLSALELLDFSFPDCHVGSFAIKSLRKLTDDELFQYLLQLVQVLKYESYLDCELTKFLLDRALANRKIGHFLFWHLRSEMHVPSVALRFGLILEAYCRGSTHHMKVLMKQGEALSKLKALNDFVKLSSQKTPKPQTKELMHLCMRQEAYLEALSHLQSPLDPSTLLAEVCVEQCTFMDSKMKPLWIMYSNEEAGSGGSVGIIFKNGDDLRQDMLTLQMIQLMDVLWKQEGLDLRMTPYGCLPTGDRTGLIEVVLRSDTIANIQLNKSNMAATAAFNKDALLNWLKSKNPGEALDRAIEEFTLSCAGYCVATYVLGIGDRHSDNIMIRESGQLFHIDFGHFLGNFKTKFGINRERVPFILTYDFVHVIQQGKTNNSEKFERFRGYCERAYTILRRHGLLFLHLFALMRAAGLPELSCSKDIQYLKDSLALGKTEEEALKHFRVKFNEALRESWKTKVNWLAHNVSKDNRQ
Assay Summary: Enzyme Assay
Task for the reader: assign each of the following compounds its reported log10(IC50).
All values: base-10 log of IC50 in nM.

The cases that follow already have their log10(IC50) on record.
{"Smiles Str": "C[C@H](Nc1ncnc2[nH]cnc12)c1cc2ccc(F)cc2nc1-c1ccccc1S(C)(=O)=O", "Property Name": "log10(IC50)", "Quantitative Readout": 1.04}
{"Smiles Str": "C[C@H](Nc1ncnc2[nH]cnc12)c1nc2ccc(F)cc2nc1-c1ccccn1", "Property Name": "log10(IC50)", "Quantitative Readout": 1.38}
{"Smiles Str": "C[C@H](Nc1ncnc2[nH]cnc12)c1cc2cccc(F)c2nc1-c1cc(F)cc(F)c1", "Property Name": "log10(IC50)", "Quantitative Readout": 1.08}

Please state log10(IC50) for every compound in the list that follows.
1. Cc1ccccc1-c1nc2c(C)cccc2cc1CCc1ncnc2[nH]cnc12
2. Cc1ccccc1-n1c(CNc2nc(N)nc3[nH]cnc23)nc2cccc(C)c2c1=O

Outgoing:
1. 3.56
2. 1.40

* * *

Assayed Target: PIK3CD (Human) (UniProt O00329)
Assay Summary: Enzyme Assay
Task for the reader: assign each of the following compounds its reported pIC50.
Numbers only, as −log10 of the molar value.

{"Smiles Str": "C[C@H](Nc1ncnc2[nH]cnc12)c1cc2cccc(F)c2nc1-c1cccnc1", "Assayed Target": "PIK3CD (Human) (UniProt O00329)", "pIC50": 7.80}
{"Smiles Str": "Cc1ccccc1-c1nc2c(C)cccc2cc1[C@H](C)Oc1ncnc2[nH]ccc12", "Assayed Target": "PIK3CD (Human) (UniProt O00329)", "pIC50": 8.15}
{"Smiles Str": "C[C@H](Nc1ncnc2[nH]cnc12)c1cc2cccc(Cl)c2nc1-c1ccccc1F", "Assayed Target": "PIK3CD (Human) (UniProt O00329)", "pIC50": 8.49}

Please state pIC50 for every compound in the list that follows.
1. C[C@H](Nc1ncnc2[nH]cnc12)c1cc2cccc(Cl)c2nc1-c1ccccc1Cl
2. Fc1cccc(-c2nc3c(Cl)cccc3cc2CNc2ncnc3[nH]cnc23)c1
3. Cc1ccccc1-c1nc2c(C)cccc2cc1CNc1ncnc2[nH]cnc12
4. COc1ccccc1-c1nc2c(C)cccc2cc1COc1ncnc2[nH]cnc12

Outgoing:
[8.10, 7.09, 7.39, 7.36]

Please state pIC50 for every compound in the list that follows.
1. Cc1ccccc1-c1nc2c(C)cccc2cc1COc1ncnc2[nH]cnc12
2. Cc1ncccc1-c1nc2c(Cl)cccc2cc1[C@H](C)Nc1ncnc2[nH]cnc12
3. C[C@H](Nc1ncnc2[nH]cnc12)c1cc2cccc(C#N)c2nc1-c1ccccn1

Outgoing:
1: 7.77; 2: 7.74; 3: 7.37

* * *

Assayed Target: PIK3CB (Human)
Task for the reader: assign each of the following compounds its reported log10(IC50).
All values: base-10 log of IC50 in nM.

{"Smiles Str": "C[C@H](Nc1ncnc2[nH]cnc12)c1cc2cccc(F)c2nc1-c1cccc(F)c1", "Assayed Target": "PIK3CB (Human)", "Property Name": "log10(IC50)", "Quantitative Readout": 3.04}
{"Smiles Str": "C[C@H](Nc1ncnc2[nH]cnc12)c1nc2ccc(F)cc2nc1-c1ccccn1", "Assayed Target": "PIK3CB (Human)", "Property Name": "log10(IC50)", "Quantitative Readout": 3.61}
{"Smiles Str": "C[C@H](Nc1ncnc2[nH]cnc12)c1cc2cccc(F)c2nc1-c1cccnc1", "Assayed Target": "PIK3CB (Human)", "Property Name": "log10(IC50)", "Quantitative Readout": 3.46}
{"Smiles Str": "Cc1ccccc1-c1nc2c(C)cccc2cc1COc1ncnc2[nH]cnc12", "Assayed Target": "PIK3CB (Human)", "Property Name": "log10(IC50)", "Quantitative Readout": 3.23}
{"Smiles Str": "C[C@H](Nc1ncnc2[nH]cnc12)c1cc2cccc(Cl)c2nc1-c1ccccc1Cl", "Assayed Target": "PIK3CB (Human)", "Property Name": "log10(IC50)", "Quantitative Readout": 3.18}

Please state log10(IC50) for every compound in the list that follows.
1. Fc1cccc(-c2nc3c(Cl)cccc3cc2CNc2ncnc3[nH]cnc23)c1
2. COc1ccccc1-c1nc2c(C)cccc2cc1CSc1ncnc2[nH]cnc12
3. C[C@H](Nc1ncnc2[nH]cnc12)c1nc2cccc(Cl)c2nc1-c1ccccn1
4. C[C@H](Nc1ncnc2[nH]cnc12)c1cc2cccc(F)c2nc1-c1cc(F)ccc1F

Outgoing:
1: 3.57; 2: 4.69; 3: 3.04; 4: 3.28

meta.source: the Kinase Knowledgebase extract (Sharma et al. 2016)
